A collection of molecules and their measured CDNB Assay % Inhibition
test system: AmGSTF1; experiment: CDNB assay: inhibition of AmGSTF1-catalysed glutathionylation of CDNB; format: biochemical, Alopecurus myosuroides; settings: 100 µM compound; three replicate measurements
Provide the reading as a plain figure in %.

Kindly note: AmGSTF1, O=c1cc(-c2ccccc2)oc2cc(O)cc(O)c12 [compound 2, 5,7-dihydroxyflavone, reference compound] , CDNB Assay % Inhibition value reported: 96

New cases:
Kindly note: AmGSTF1, CC(=O)Oc1cc(O)c2c(=O)cc(-c3ccccc3)oc2c1 [compound 28] , CDNB Assay % Inhibition value reported: 10

Kindly note: AmGSTF1, CCCCCCCCCCC(Oc1cc(OC)cc2oc(-c3ccccc3)cc(=O)c12)C(=O)O (stereo not shown) [compound 45] , CDNB Assay % Inhibition value reported: 100

Kindly note: AmGSTF1, COc1cc(OC)c2c(=O)cc(-c3ccn[nH]3)oc2c1 [compound 24] , CDNB Assay % Inhibition value reported: 59

---

tested on: AmGSTF1; test: CDNB assay: inhibition of AmGSTF1-catalysed glutathionylation of CDNB; type: biochemical, Alopecurus myosuroides; conditions: 1 µM compound; three replicate measurements
A collection of compounds and their measured CDNB Assay % Inhibition
Provide the reading as a plain figure in %.

The examples below pair each entry with its known result.
Looking up CCCCCCCCCCC(Oc1cc(O)cc2oc(-c3ccc(O)c(O)c3)c(O)c(=O)c12)C(=O)O (stereo not drawn) [compound 55] , I found its CDNB Assay % Inhibition recorded as 70

Looking up CCCCCCCCCC(Oc1cc(OC)cc2oc(-c3ccccc3)cc(=O)c12)C(=O)O (stereo not drawn) [compound 44] , I found its CDNB Assay % Inhibition recorded as 58

Looking up CCCCCC(Oc1cc(OC)cc2oc(-c3ccccc3)cc(=O)c12)C(=O)O (stereo not drawn) [compound 42] , I found its CDNB Assay % Inhibition recorded as 4

Looking up COc1cc(OC(C(=O)O)C(C)C)c2c(=O)cc(-c3ccccc3)oc2c1 (stereo not drawn) [compound 47] , I found its CDNB Assay % Inhibition recorded as 7

Looking up CCCCCCCCCCCCC(Oc1cc(OC)cc2oc(-c3ccccc3)cc(=O)c12)C(=O)O (stereo not drawn) [compound 46] , I found its CDNB Assay % Inhibition recorded as 75

New cases:
Looking up COc1cc(OCC(=O)O)c2c(=O)cc(-c3ccccc3)oc2c1 [compound 40] , I found its CDNB Assay % Inhibition recorded as 23
